Test: chemical genetic growth profiling, strain panel (AID 1159580);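 also: tested at 20 µM; growth read once vehicle control cultures reached saturation at 30 °C; 1 = growth at the plate median or of vehicle wells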
Conditions: S. cerevisiae deletion strains, growth OD, locus YGR078C, strain PAC10, stronger effect = lower value
The campaign covered roughly 5,500 compounds. About 2,000 (36%) were called active. About 18% were inconclusive and are not listed. This is one part of the list.
For each entry below, report its normalized growth value.
Answers are plain numbers.

Example compounds with recorded normalized growth:
O=C(CCCN1CC=C(n2c(=O)[nH]c3ccccc32)CC1)c1ccc(F)cc1 ... 0.985
CC(=O)OC1CCC2C3CCc4cc(O)ccc4C3CCC12C (centres undefined) ... 0.899
C[C@]12C=CC(=O)C=C1CCC1C2CC[C@]2(C)C(=O)CCC12 (some centres undefined) ... 1.02

Field: next compound
Input line: Find the measured normalized growth of CN1CCN(CCCN2c3ccccc3Sc3ccc(Cl)cc32)CC1 and report it.
Output line: 0.594

====

Test: chemical genetic growth profiling, strain panel (AID 1159580)
Settings: S. cerevisiae deletion strains, growth OD, locus YMR078C, strain ctf18, stronger effect = lower value
Hit rate of the full screen: of about 5,500 compounds, about 2,000 (36%) were called active. Roughly 18% stayed inconclusive and do not appear here. This is one part of the list.
recorded.endpoint: normalized growth
Numbers only.

Example compounds with recorded normalized growth:
COc1c2occc2cc2ccc(=O)oc12 ... 0.974
CN1Cc2c(N)cccc2C(c2ccccc2)C1 (centres undefined) ... 1.02
CCS(=O)(=O)CCn1c([N+](=O)[O-])cnc1C ... 1.01

Kindly give each listed record's normalized growth.
1. Nc1ncnc2nc[nH]c12
2. CNC(=O)CSP(=S)(OC)OC
3. CC(C(=O)O)c1ccc(N2Cc3ccccc3C2=O)cc1 (centres undefined)
4. COP(=S)(OC)SCn1nnc2ccccc2c1=O
5. COc1cc2ccc(=O)oc2c(OC)c1OC
6. CCOC(=O)C1=C(C)NC(C)=C(C(=O)OC)C1c1cccc([N+](=O)[O-])c1 (centres undefined)

Output line:
1: 0.988; 2: 1.02; 3: 0.995; 4: 0.981; 5: 1.02; 6: 0.999

====

Experiment: chemical genetic growth profiling, strain panel (AID 1159580)
Conditions: S. cerevisiae deletion strains, growth OD, locus YJR016C, strain ILV3
The whole screen tested about 5,500 compounds, of which about 2,000 (36%) were called active. Inconclusive results (about 18%) are left out. Cut-off read from the data, not from the text of the source: active = normalized growth mostly below about 0.91 (no sharp cut-off); inconclusive = no clear call, values can overlap the other calls; inactive = mostly above about 0.92. The list shows a part of the results.
Your answer must be one of the following: class 1 for active, class 0 for inactive

Study these solved cases before continuing.
CN(C)c1nc(=S)ss1 ... class 1
COc1cc(OC)cc(/C(N)=N\O)c1 ... class 0
N#C/C(=C\C=C\c1ccccc1)c1nc2ccccc2[nH]1 ... class 0
CCOC(=O)C1C(c2ccc(Br)cc2)C(C(=O)OCC)C(O)(C(F)(F)F)NC1(O)C(F)(F)F (stereo not given) ... class 0
N#C/C(=C\c1ccc(C(F)(F)F)cc1)c1ccc(O)cc1 ... class 0
O=C1CSC(=Nc2cc(Cl)cc(Cl)c2)N1Cc1cccnc1 ... class 0
O=C(O)c1cccc2cccc(C(=O)O)c12 ... class 1
Cc1oc(-c2ccc(Cl)cc2)cc1C(=O)N1CCN(c2ccc(C(F)(F)F)cn2)CC1 ... class 0
O=C(Nc1ccc(Cl)cc1)c1csc([N+](=O)[O-])c1 ... class 0
CC1CCc2c(sc3ncnc(Sc4ccccc4)c23)C1 (stereo not given) ... class 0

Input line: Which outcome did this test record for the compound FC(F)(F)c1ccc(NC(=S)Nc2ccc(C(F)(F)F)cc2Cl)c(Cl)c1 ?
Output line: class 0

Input line: Which outcome did this test record for the compound CCCCCc1ccc(S(=O)(=O)Nc2ncc(C)cc2Br)cc1 ?
Output line: class 0

Input line: Which outcome did this test record for the compound Cc1c(NCN2C(=O)CCC2=O)cc2c(c1[N+](=O)[O-])C(C)(C)CC2(C)C ?
Output line: class 0

Input line: Which outcome did this test record for the compound CCCCCc1ccc(-c2nc(SCC(C)=O)n[nH]2)cc1 ?
Output line: class 0

Input line: Which outcome did this test record for the compound O=S(=O)(Nc1cc(-c2cccs2)nn1-c1ccc(I)cc1)c1cccc(F)c1 ?
Output line: class 0

====

Assay: chemical genetic growth profiling, strain panel (AID 1159580)
Conditions: S. cerevisiae deletion strains, growth OD, locus YGR078C, strain PAC10, stronger effect = lower value
Out of some 5,500 compounds screened, about 2,000 (36%) were called active. Roughly 18% stayed inconclusive and do not appear here. The list shows a part of the results.
recorded.endpoint: normalized growth
Give bare numbers.

Cc1cc(O)c2c(c1O)C(=O)c1c(O)cc(C)c(O)c1C2=O ... 0.983

Kindly give each listed record's normalized growth.
1. COC(=O)c1csc2c(C(F)(F)F)cc(N3CCN(S(=O)(=O)c4ccc(C)cc4)CC3)nc12
2. O=C(NC(=S)Nc1ccc(Cl)cc1)c1ccc([N+](=O)[O-])o1
3. COc1cccc(NC(=S)NCc2ccco2)c1
4. COc1cc(O)c(C(=O)c2ccccc2)c(OC)c1

Output line:
1.02
0.963
1.01
0.927

Kindly give each listed record's normalized growth.
1. Cc1onc(-c2c(F)cccc2Cl)c1C(=O)N1CCN(c2ncccc2C(F)(F)F)CC1
2. COC(=O)c1c(OC)ccc(N=CNO)c1OC
3. O=C(CSc1nnc(-c2ccco2)n1-c1ccc2c(c1)OCCO2)c1cccc(F)c1
4. FC(F)(F)c1ccc(-n2cncn2)nc1
5. O=C(O)C12CC3CC(CC(Br)(C3)C1)C2
6. CC(=O)/C(=C\N(C)C)Sc1nnc(C(F)(F)F)n1C

Output line:
[1.01, 1, 0.988, 1.01, 0.99, 1.01]

Kindly give each listed record's normalized growth.
1. O=C1CCC(=O)N1CNc1ccccc1OC(F)(F)F
2. CC(NC(=S)Nc1ccc(Oc2ccc(Cl)cc2)cc1)c1ccccc1 (centres undefined)
3. O=C(c1ccc(Cl)cc1)N1CCN(c2ccc(C(F)(F)F)cn2)CC1
4. Nc1ncnc2c1ncn2[C@@H]1O[C@H](CO)[C@@H](O)[C@@H]1O

Output line:
1. 0.996
2. 0.995
3. 0.933
4. 1.01

====

Assay: chemical genetic growth profiling, strain panel (AID 1159580);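 also: tested at 20 µM; growth read once vehicle control cultures reached saturation at 30 °C; 1 = growth at the plate median or of vehicle wells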
Conditions: S. cerevisiae deletion strains, growth OD, locus YMR078C, strain ctf18, stronger effect = lower value
Among all 5,500 compounds or so, about 2,000 (36%) were called active. Not shown: some 18% with an inconclusive outcome. The list shows a part of the results.
For each entry below, report its normalized growth value.
Numbers only.

CC(=O)O[C@@H]1CC2C(C)(C)C(=O)[C@@H]3O[C@@H]3[C@]2(C)C2CC[C@]3(C)C(=CC(=O)O[C@H]3c3ccoc3)[C@@]21C (stereo partly drawn) ... 0.993

Kindly give each listed record's normalized growth.
1. C[C@]12CCC3c4ccc(O)cc4CCC3C1CC[C@@H]2OC(=O)CCC1CCCC1 (stereo partly drawn)
2. CCCCC(=O)O[C@H]1CCC2C3CCc4cc(O)ccc4C3CC[C@@]21C (stereo partly drawn)

Output line:
1. 1.01
2. 1

====

Experiment: chemical genetic growth profiling, strain panel (AID 1159580);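 also: tested at 20 µM; growth read once vehicle control cultures reached saturation at 30 °C; 1 = growth at the plate median or of vehicle wells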
Settings: S. cerevisiae deletion strains, growth OD, locus YNL322C, strain KRE1 (second series), stronger effect = lower value
In all, about 5,500 compounds went through this assay and about 2,000 (36%) were called active. Roughly 18% stayed inconclusive and do not appear here. The list shows a part of the results.
recorded.endpoint: normalized growth

Example compounds with recorded normalized growth:
COc1c2occc2cc2ccc(=O)oc12 ... 0.763 (active)
Fc1ccc(C(c2ccc(F)cc2)N2CCN(C/C=C/c3ccccc3)CC2)cc1 ... 0.244 (active)
CCNc1nc(Cl)nc(NC(C)C)n1 ... 1 (inactive)
CC(=O)OCC(=O)[C@@]1(O)CCC2C3CCC4=CC(=O)CC[C@]4(C)[C@@]3(F)[C@@H](O)C[C@@]21C (stereo not given in full) ... 1.02 (inactive)

Field: next compound
Input line: Find the measured normalized growth of CN1CCN(C(c2ccccc2)c2ccccc2)CC1 and report it.
Output line: 0.978 (inactive)

====

Experiment: chemical genetic growth profiling, strain panel (AID 1159580);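 also: tested at 20 µM; growth read once vehicle control cultures reached saturation at 30 °C; 1 = growth at the plate median or of vehicle wells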
Details: S. cerevisiae deletion strains, growth OD, locus YDR101C, strain arx1, stronger effect = lower value
Out of some 5,500 compounds screened, about 2,000 (36%) were called active. Inconclusive results (about 18%) are left out. The list shows a part of the results.
normalized growth less than 1 is MET; normalized growth greater than or equal to 1 is NOT MET.

COc1ccc2ccc(=O)oc2c1CC=C(C)C ... MET
COc1ccc2c(=O)c(CC(=O)O)coc2c1 ... NOT MET
c1ccc2c(c1)[nH]c1cnccc12 ... MET

Now turn to the next molecule.
Input line: Consider CCCCC/C=C\C/C=C\C/C=C\C/C=C\CCCC(=O)O . Does its normalized growth lie strictly below 1?
Output line: MET
